# System: CCRIS mutagenicity, Ames/micronucleus/aberration tests
# Test summary: CCRIS mutagenicity studies
# Setup conditions: End Point: IN VITRO CHROMOSOMAL ABERRATIONS; Test System: CHO-LB CELLS; Metabolic Activation: RAT, LIVER, S-9, AROCLOR 1254
The source made the active and inactive calls. How the calls were made is not given here.
Outcome codes: YES (active), NO (inactive)

[[record]]
smiles_code = "C[C@@H]1[C@H](O)[C@@H](C)/C=C/C=C/C=C/C=C/C=C/C=C/C=C/[C@H](O[C@@H]2O[C@H](C)[C@@H](O)[C@H](N)[C@@H]2O)C[C@@H]2O[C@](O)(C[C@@H](O)C[C@@H](O)[C@H](O)CC[C@@H](O)C[C@@H](O)CC(=O)O[C@H]1C)C[C@H](O)[C@H]2C(=O)O"
discrete_label = "NO"

[[record]]
smiles_code = "COCCOC(C)=O"
discrete_label = "YES"

[[record]]
smiles_code = "CCCCCCCCc1ccc(Nc2ccc(CCCCCCCC)cc2)cc1"
discrete_label = "NO"

[[record]]
smiles_code = "COC(=O)c1ccccc1C(=O)OC"
discrete_label = "NO"

[[record]]
smiles_code = "Oc1cccc2cccnc12"
discrete_label = "YES"


FYI, the data here is from PubChem BioAssay AID1259407.
